- System: Vero cells
- EXPERIMENT: In vitro cytotoxicity test, MTT assay on Vero cell line
- Type: cell-based
- STATED CONDITIONS: Chlorocebus sabaeus, Vero, 24 h, 24 hours incubation, MTT assay
Provide the reported log10 of IC50 of each item.
// do not treat as linear: log10 of IC50, unit µM

O=c1c2ccc(O)c(O)c2oc2cccc(O)c12 [HX3, 1,5,6-trihydroxyxanthone] : 2.36
Cc1c(O)ccc2c(=O)c3c(O)cccc3oc12 [HX5, 1,6-dihydroxy-5-methylxanthone] : 2.66
O=c1c2cccc(Cl)c2oc2cccc(O)c12 [HX4, 1-hydroxy-5-chloroxanthone] : 2.53
O=c1c2c(O)cccc2oc2cc(O)cc(O)c12 [HX1, 1,6,8-trihydroxyxanthone] : 3.52

Now let's try a different one.
What reported log10 of IC50 corresponds to O=c1c2ccc(O)cc2oc2cccc(O)c12 [HX2, 1,6-dihydroxyxanthone] on Vero cells? 2.59

The origin of these recorded values is paper PMC8026324.
